experimental.system: ALK5 kinase (Homo sapiens)
Construct: GST; purchased Thermo Fisher Scientific Solutions
Sequence (P36897 34-503): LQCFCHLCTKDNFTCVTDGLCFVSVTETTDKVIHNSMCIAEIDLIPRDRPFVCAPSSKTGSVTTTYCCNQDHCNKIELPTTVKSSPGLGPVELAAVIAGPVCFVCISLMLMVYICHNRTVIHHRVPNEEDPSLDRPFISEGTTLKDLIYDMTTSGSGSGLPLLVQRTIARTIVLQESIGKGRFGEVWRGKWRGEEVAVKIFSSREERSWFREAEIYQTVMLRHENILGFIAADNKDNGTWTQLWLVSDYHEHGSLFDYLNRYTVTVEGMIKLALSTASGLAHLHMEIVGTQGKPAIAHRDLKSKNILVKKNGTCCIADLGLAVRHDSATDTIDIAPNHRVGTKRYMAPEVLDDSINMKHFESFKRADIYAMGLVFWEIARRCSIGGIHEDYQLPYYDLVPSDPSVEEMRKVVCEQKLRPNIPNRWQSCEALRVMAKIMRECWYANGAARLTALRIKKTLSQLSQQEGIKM
assay: Activity inhibition test on ALK5 enzyme (LanthaScreen Eu binding kinase assay)
condition.description: kinase tracer 178, 60 minutes at room temperature
// values below are reported IC50

Would you please look over these solved cases?
INSERT INTO measurements (molecule_smiles, experimental_system, measurement) VALUES
  ('Cc1ccc(NC(=O)c2cc(-c3ccc4ncnn4c3)n(-c3cccc(C)n3)n2)cc1', 'ALK5 kinase (Homo sapiens)', '10 to 100 nM'),
  ('Cc1cccc(-n2nc(C(=O)Nc3ccccc3F)cc2-c2ccc3nccnc3c2)n1', 'ALK5 kinase (Homo sapiens)', '< 100 nM'),
  ('Cc1cccc(-n2nc(C(=O)Nc3cccc(OC(F)(F)F)c3)cc2-c2ccc3ncnn3c2)n1', 'ALK5 kinase (Homo sapiens)', '10 to 100 nM'),
  ('COc1ccccc1NC(=O)c1cc(-c2ccc3nccnc3c2)n(-c2cccc(C)n2)n1', 'ALK5 kinase (Homo sapiens)', '~100 nM'),
  ('Cc1cccc(-n2nc(C(=O)NCc3cccc(F)c3)cc2-c2ccc3nccnc3c2)n1', 'ALK5 kinase (Homo sapiens)', '10 to 100 nM');

Documented IC50 of "CC(=O)Nc1ccc(NC(=O)c2cc(-c3ccc4ncsc4c3)n(-c3cccc(C)n3)n2)cc1" : 10 to 100 nM

Documented IC50 of "Cc1cccc(-n2nc(C(=O)Nc3ccc(Cl)nc3)cc2-c2ccc3ncsc3c2)n1" : 5.8 nM
